# systemTested: SLK (human) (UniProt Q9H2G2)
# Sequence (Q9H2G2 whole entry, looked up): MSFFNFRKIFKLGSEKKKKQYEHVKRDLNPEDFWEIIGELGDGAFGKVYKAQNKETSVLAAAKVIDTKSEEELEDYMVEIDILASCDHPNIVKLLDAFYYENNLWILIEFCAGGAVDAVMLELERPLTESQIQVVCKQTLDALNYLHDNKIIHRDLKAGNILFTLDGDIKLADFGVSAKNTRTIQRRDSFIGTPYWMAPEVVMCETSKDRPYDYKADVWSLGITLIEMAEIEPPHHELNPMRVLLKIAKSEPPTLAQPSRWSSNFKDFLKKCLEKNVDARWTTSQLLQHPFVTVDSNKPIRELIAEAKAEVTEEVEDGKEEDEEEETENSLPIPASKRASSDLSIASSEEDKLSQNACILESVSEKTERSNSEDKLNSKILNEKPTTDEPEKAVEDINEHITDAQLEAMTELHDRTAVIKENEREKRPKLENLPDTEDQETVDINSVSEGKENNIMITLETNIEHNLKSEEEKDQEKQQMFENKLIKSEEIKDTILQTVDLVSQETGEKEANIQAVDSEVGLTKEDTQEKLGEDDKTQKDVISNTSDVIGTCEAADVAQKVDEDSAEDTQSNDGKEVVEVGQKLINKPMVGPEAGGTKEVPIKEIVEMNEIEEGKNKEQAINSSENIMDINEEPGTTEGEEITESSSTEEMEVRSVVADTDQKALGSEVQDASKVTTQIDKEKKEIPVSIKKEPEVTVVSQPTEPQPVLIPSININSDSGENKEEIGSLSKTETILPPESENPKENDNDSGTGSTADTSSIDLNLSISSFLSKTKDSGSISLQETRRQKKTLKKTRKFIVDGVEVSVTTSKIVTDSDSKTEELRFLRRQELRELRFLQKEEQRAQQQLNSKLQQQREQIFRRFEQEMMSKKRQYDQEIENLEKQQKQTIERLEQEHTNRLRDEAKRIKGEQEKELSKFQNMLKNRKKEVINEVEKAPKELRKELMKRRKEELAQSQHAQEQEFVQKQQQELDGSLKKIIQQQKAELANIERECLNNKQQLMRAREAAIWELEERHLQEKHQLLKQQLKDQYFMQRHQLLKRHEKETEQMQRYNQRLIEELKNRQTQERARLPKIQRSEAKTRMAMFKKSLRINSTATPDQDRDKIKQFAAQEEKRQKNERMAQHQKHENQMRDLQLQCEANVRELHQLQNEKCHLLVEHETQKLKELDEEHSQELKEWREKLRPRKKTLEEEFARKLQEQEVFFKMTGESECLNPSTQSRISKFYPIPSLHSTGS
# assayRemarks: radiometric filter-binding kinase assay, Kinase HotSpot
# measurementConditions: compound 0.5 µM; ATP 10 µM
resultType: residual activity (%)
Value expressed in %; do not type the unit.

Solved entries:
CCN(CC)CCNC(=O)c1c(C)[nH]c(/C=C2\C(=O)Nc3ccc(Cl)cc32)c1C : 38
Cc1[nH]c(/C=C2\C(=O)Nc3ccc(S(=O)(=O)N(C)c4cccc(Cl)c4)cc32)c(C)c1C(=O)N1CCN(C)CC1 : 13.6
Nc1ncnc2c1c(-c1ccc(Oc3ccccc3)cc1)cn2C1CCCC1 : 96.5
CCCC(=O)Oc1ccc2[nH]c(C(=O)c3cc4ccccc4[nH]3)cc2c1 : 98.9

Here is another compound to look at.
Inquiry: Read the entry Cc1ccc(Nc2nccc(N(C)c3ccc4c(C)n(C)nc4c3)n2)cc1S(N)(=O)=O and write its reported residual activity.
Reply text: 84.9
